test: Viability of PBL after 72 hr culture (propidium iodide exclusion); type: cell-based, human; settings: human; PBL, 72 hr culture, 10 μM; untreated 90; read-out: % Viable Cells
PROPERTY LABEL: viability at 72 h, 10 µM (%)
# unit: % | format: bare number

// query Please look up its viability at 72 h, 10 µM: O=C(O)C1=CC(=C(c2ccc(O)c(C(=O)O)c2)c2ccc(O)c(C(=O)O)c2)C=CC1=O [ATA, aurin tricarboxlyic acid, reference compound]
// result 86

###

test: Viability of PBL after 72 hr culture with anti-TCR stimulation (propidium iodide exclusion); assay type: cell-based, human; settings: human, anti-tcr stimulated pbl; PBL, 72 hr culture with anti-TCR stimulation, 100 μM; untreated 78; read-out: % Viable Cells
PROPERTY LABEL: viability at 72 h, 100 µM

// query Please look up its viability at 72 h, 100 µM: COc1cc(N=Nc2cc(S(=O)(=O)O)cc3cc(S(=O)(=O)O)cc(O)c23)c(C)cc1NC(=O)Nc1cc(C)c(N=Nc2cc(S(=O)(=O)O)cc3cc(S(=O)(=O)O)cc(O)c23)cc1OC
// result 54%

###

test: Viability of PBL after 72 hr culture (propidium iodide exclusion); format: cell-based, human; conditions: human; PBL, 72 hr culture, 400 μM; untreated 90; read-out: % Viable Cells
PROPERTY LABEL: viability at 72 h, 400 µM (%)
# unit: % | format: bare number

// query Please look up its viability at 72 h, 400 µM: COc1cc(N=Nc2cc(S(=O)(=O)O)cc3cc(S(=O)(=O)O)cc(O)c23)c(C)cc1NC(=O)Nc1cc(C)c(N=Nc2cc(S(=O)(=O)O)cc3cc(S(=O)(=O)O)cc(O)c23)cc1OC
// result 89
